target: PSE-1 (Pseudomonas aeruginosa); test: Competitive assay with nitrocefin (RSAI); type: biochemical, Ps.aerug. 1937E; design: Normally, therefore, the beta-lactamase has to be extracted from the cells for the purpose of the present invention; endogenous in cells
Sequence (Q03170 18-288): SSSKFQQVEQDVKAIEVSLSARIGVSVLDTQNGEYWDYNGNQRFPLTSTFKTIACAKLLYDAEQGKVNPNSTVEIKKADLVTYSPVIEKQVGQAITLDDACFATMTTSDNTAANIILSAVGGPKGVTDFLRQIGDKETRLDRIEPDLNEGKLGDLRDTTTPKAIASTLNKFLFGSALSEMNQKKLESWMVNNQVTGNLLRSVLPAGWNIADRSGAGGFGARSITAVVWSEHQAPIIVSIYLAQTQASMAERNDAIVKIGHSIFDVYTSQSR
Documented RSAI across a set of compounds
Value Kind: RSAI

• CC1(C)S[C@@H]2[C@H](NC(=O)[C@H](N)c3ccc(O)cc3)C(=O)N2[C@H]1C(=O)O = 0.9
• CC1(C)S[C@@H]2[C@H](NC(=O)[C@H](N)c3ccccc3)C(=O)N2[C@H]1C(=O)O = 0.4
• Cc1onc(-c2ccccc2Cl)c1C(=O)N[C@@H]1C(=O)N2[C@@H]1SC(C)(C)[C@@H]2C(=O)O = 2
• CO[C@@]1(NC(=O)C(C(=O)O)c2ccc(O)cc2)C(=O)N2C(C(=O)O)=C(CSc3nnnn3C)CO[C@@H]21 (stereo partly shown) = 3.5
• CC1(C)S[C@@H]2[C@H](NC(=O)[C@H](C(=O)O)c3ccsc3)C(=O)N2[C@H]1C(=O)O = 0.63
• CC(C)(O/N=C(\C(=O)N[C@@H]1C(=O)N2C(C(=O)[O-])=C(C[n+]3ccccc3)CS[C@H]12)c1csc(N)n1)C(=O)O = 600
• CO/N=C(\C(=O)N[C@@H]1C(=O)N2C(C(=O)O)=C(COC(C)=O)CS[C@H]12)c1csc(N)n1 = 70
• CO/N=C(\C(=O)N[C@@H]1C(=O)N2C(C(=O)O)=CCS[C@H]12)c1csc(N)n1 = 360
• Cn1nnnc1SCC1=C(C(=O)O)N2C(=O)[C@@H](NC(=O)[C@H](O)c3ccccc3)[C@H]2SC1 = 6.9
• CC1(C)[C@H](C(=O)O)N2C(=O)C[C@H]2S1(=O)=O = 0.036
• CC1(C)S[C@@H]2[C@H](NC(=O)[C@H](NC(=O)N3CCNC3=O)c3ccccc3)C(=O)N2[C@H]1C(=O)O = 0.23
• Cc1nnc(SCC2=C(C(=O)O)N3C(=O)[C@@H](NC(=O)Cn4cnnn4)[C@H]3SC2)s1 = 2
• CC1(C)S[C@@H]2[C@H](/N=C/N3CCCCCC3)C(=O)N2[C@H]1C(=O)O = 66
• C[C@@H](O)[C@H]1C(=O)N2C(C(=O)O)=C(SCCN=CN)C[C@H]12 = 19.4
• O=C(O)[C@H]1/C(=C/CO)O[C@@H]2CC(=O)N21 = 0.0001
• CCN1CCN(C(=O)N[C@@H](C(=O)N[C@@H]2C(=O)N3C(C(=O)O)=C(CSc4nnnn4C)CS[C@H]23)c2ccc(O)cc2)C(=O)C1=O = 0.019
• CC1(C)S[C@@H]2[C@H](NC(=O)Cc3ccccc3)C(=O)N2[C@H]1C(=O)O = 0.6
• CO/N=C(\C(=O)N[C@@H]1C(=O)N2C(C(=O)O)=C(COC(N)=O)CS[C@H]12)c1ccco1 = 50
• CC1=C(C(=O)O)N2C(=O)[C@@H](NC(=O)[C@H](N)C3=CCC=CC3)[C@H]2SC1 = 46
• CO/N=C(\C(=O)N[C@@H]1C(=O)N2C(C(=O)O)=C(CSc3nc(=O)c(=O)[nH]n3C)CS[C@H]12)c1csc(N)n1 = 14
• CC(=O)OCC1=C(C(=O)O)N2C(=O)[C@@H](NC(=O)Cc3cccs3)[C@H]2SC1 = 4
• CC1(C)S[C@@H]2[C@H](NC(=O)C(C(=O)O)c3ccccc3)C(=O)N2[C@H]1C(=O)O (stereo partly shown) = 1.4
• CC1(C)S[C@@H]2[C@H](NC(=O)[C@H](NC(=O)N3CCN(S(C)(=O)=O)C3=O)c3ccccc3)C(=O)N2[C@H]1C(=O)O = 1.2
• O=C(Cc1cccs1)N[C@@H]1C(=O)N2C(C(=O)[O-])=C(C[n+]3ccccc3)CS[C@H]12 = 6
• CO[C@@]1(NC(=O)Cc2cccs2)C(=O)N2C(C(=O)O)=C(COC(N)=O)CS[C@@H]21 = 20
